Sourced from patent US8952024B2

Form field: Plant response rating, Crabgrass, Large (one value per entry).
Test system: large crabgrass (Digitaria sanguinalis)
Assay: Test B pre-/postemergence plant response
Assay type: in vivo
Settings: 250 g ai/ha, Preemergence, 0 to 100 scale
// no unit string in output, number only

# example entries with known answers
- structure-notation: "O=C1CCCC(O)=C1C(=O)c1cnc(-c2ccsc2)n(-c2ccccc2)c1=O"
  measurement-target: "large crabgrass (Digitaria sanguinalis)"
  data-value: 98
- structure-notation: "CCCCc1ncc(C(=O)C2=C(O)CCCC2=O)c(=O)n1-c1cccc(C)c1"
  measurement-target: "large crabgrass (Digitaria sanguinalis)"
  data-value: 100
- structure-notation: "Cc1c(Cl)cccc1-n1c(-c2ccccc2)ncc(C(=O)C2=C(O)CCCC2=O)c1=O"
  measurement-target: "large crabgrass (Digitaria sanguinalis)"
  data-value: 100

q: Plant response rating, Crabgrass, Large of Cc1ccc(F)cc1-n1c(-c2ccccc2)ncc(C(=O)C2=C(O)CCCC2=O)c1=O on large crabgrass (Digitaria sanguinalis)?
a: 100

----------
System: barnyardgrass (Echinochloa crus-galli)
Experiment: Test B flooded paddy test
Assay type: in vivo
Conditions: Flood (flooded paddy test), 31 g ai/ha; scale of 0 to 100 where 0 is no effect and 100 is complete control; 13 to 15 days
observation-type: Plant response rating, Barnyardgrass

# example entries with known answers
- compound: "Cc1ccc(-n2c(-c3ccccc3)ncc(C(=O)C3=C(O)CCCC3=O)c2=O)cc1"
  data-value: 0
- compound: "O=C1CCCC(O)=C1C(=O)c1cnc(-c2ccsc2)n(-c2ccccc2)c1=O"
  data-value: 10
- compound: "Cc1ccccc1-n1c(-c2cccc(Cl)c2)ncc(C(=O)C2=C(O)CCCC2=O)c1=O"
  data-value: 0
- compound: "O=C1CCCC(O)=C1C(=O)c1cnc(-c2ccccc2)n(CC2CCCO2)c1=O (centres unmarked)"
  data-value: 0

Now look at this one.
q: Any idea what its Plant response rating, Barnyardgrass is? The compound is CCn1ncc(C(=O)c2cnc(-c3ccccc3)n(-c3ccccc3)c2=O)c1OS(=O)(=O)c1ccc(C)cc1
a: 0

----------
Form field: Plant response rating, Foxtail, Giant (one value per entry).
Test system: giant foxtail (Setaria faberii)
Test: Test A pre-/postemergence plant response
Format: in vivo
Details: Postemergence, 500 g ai/ha; 0 to 100 scale, 0 = no effect, 100 = complete control; approx. ten days
// no unit string in output, number only

# example entries with known answers
- structure-notation: "Cc1ccc(-n2c(-c3ccccc3)ncc(C(=O)C3=C(O)CCCC3=O)c2=O)c(C)c1"
  Plant response rating, Foxtail, Giant: 80
- structure-notation: "COCCCn1c(-c2cccc(C)c2)ncc(C(=O)C2=C(O)CCCC2=O)c1=O"
  Plant response rating, Foxtail, Giant: 90
- structure-notation: "Cc1ccc(F)cc1-n1c(-c2cccc(Cl)c2)ncc(C(=O)C2=C(O)CCCC2=O)c1=O"
  Plant response rating, Foxtail, Giant: 100
- structure-notation: "CCCn1c(-c2ccc(F)cc2)ncc(C(=O)C2=C(O)CCCC2=O)c1=O"
  Plant response rating, Foxtail, Giant: 90
- structure-notation: "COCCn1c(-c2cccc(C)c2)ncc(C(=O)C2=C(O)CCCC2=O)c1=O"
  Plant response rating, Foxtail, Giant: 80
- structure-notation: "CCCn1c(-c2cccc(C(F)(F)F)c2)ncc(C(=O)C2=C(O)CCCC2=O)c1=O"
  Plant response rating, Foxtail, Giant: 90
- structure-notation: "O=C1CCCC(OC(=O)C2CC2)=C1C(=O)c1cnc(-c2ccccc2)n(-c2ccccc2)c1=O"
  Plant response rating, Foxtail, Giant: 90

Now look at this one.
q: Any idea what its Plant response rating, Foxtail, Giant is? The compound is Cc1ccc(-c2ncc(C(=O)C3=C(O)CCCC3=O)c(=O)n2-c2ccccc2)cc1
a: 90

----------
System: cocklebur (Xanthium strumarium)
Assay: Test B pre-/postemergence plant response
Format: in vivo
Details: 31 g ai/ha, postemergence; scale 0 to 100, 0 is no effect, 100 is complete control
observation-type: Plant response rating, Cocklebur
// no unit string in output, number only

- molecule: "CCCc1ncc(C(=O)C2=C(O)CCCC2=O)c(=O)n1CC1CCCO1 (stereo not shown) [Compound 74]"
  Plant response rating, Cocklebur: 20

q: Any idea what its Plant response rating, Cocklebur is? The molecule is CCCCn1c(-c2ccccc2)ncc(C(=O)C2=C(O)CCCC2=O)c1=O [Compound 86]
a: 85

q: Any idea what its Plant response rating, Cocklebur is? The molecule is COCCCn1c(-c2cc(F)cc(F)c2)ncc(C(=O)C2=C(O)CCCC2=O)c1=O [Compound 120]
a: 10

q: Any idea what its Plant response rating, Cocklebur is? The molecule is O=C1CCCC(OC(=O)C2CC2)=C1C(=O)c1cnc(-c2ccccc2)n(-c2ccccc2)c1=O [Compound 88]
a: 90

----------
Tested on: barnyardgrass (Echinochloa crus-galli)
Experiment: Test A pre-/postemergence plant response
Assay type: in vivo
Conditions: Postemergence, 500 g ai/ha; 0 to 100 scale, 0 = no effect, 100 = complete control; approx. ten days
observation-type: Plant response rating, Barnyardgrass
// no unit string in output, number only

# example entries with known answers
- structure-notation: "Cc1ccccc1-c1ncc(C(=O)C2=C(O)CCCC2=O)c(=O)n1-c1ccccc1"
  measurement-target: "barnyardgrass (Echinochloa crus-galli)"
  data-value: 70
- structure-notation: "Cc1cccc(Cl)c1-n1c(-c2ccccc2)ncc(C(=O)C2=C(O)CCCC2=O)c1=O"
  measurement-target: "barnyardgrass (Echinochloa crus-galli)"
  data-value: 90

q: Plant response rating, Barnyardgrass of CCCc1ncc(C(=O)C2=C(O)CCCC2=O)c(=O)n1-c1ccccc1C on barnyardgrass (Echinochloa crus-galli)?
a: 90

q: Plant response rating, Barnyardgrass of CSc1ncc(C(=O)C2=C(O)CCCC2=O)c(=O)n1-c1ccccc1 on barnyardgrass (Echinochloa crus-galli)?
a: 30

----------
Form field: Plant response rating, Crabgrass, Large (one value per entry).
System: large crabgrass (Digitaria sanguinalis)
Assay: Test B pre-/postemergence plant response
Assay type: in vivo
Settings: Postemergence, 125 g ai/ha; visual rating after 13 to 15 days, scale 0 (no effect) to 100 (complete control)
// no unit string in output, number only

# example entries with known answers
- structure-notation: "O=C1CCCC(O)=C1C(=O)c1cnc(-c2ccccc2)n(-c2cccc(Br)c2)c1=O"
  Plant response rating, Crabgrass, Large: 98
- structure-notation: "Cc1cccc(Cl)c1-n1c(-c2ccccc2)ncc(C(=O)C2=C(O)CCCC2=O)c1=O"
  Plant response rating, Crabgrass, Large: 75
- structure-notation: "Cc1ccccc1-n1c(-c2cccc(Cl)c2)ncc(C(=O)C2=C(O)CCCC2=O)c1=O"
  Plant response rating, Crabgrass, Large: 95

Now look at this one.
q: Plant response rating, Crabgrass, Large of CC(C)n1c(-c2ccccc2)ncc(C(=O)C2=C(O)CCCC2=O)c1=O on large crabgrass (Digitaria sanguinalis)?
a: 75

----------
System: downy bromegrass (Bromus tectorum)
Assay: Test B pre-/postemergence plant response
Assay type: in vivo
Conditions: Postemergence, 125 g ai/ha; scale 0 to 100 (0 no effect, 100 complete control)
Form field: Plant response rating, Bromegrass, Downy (one value per entry).
// no unit string in output, number only

- structure-notation: "CCc1ccc(-n2c(-c3ccccc3)ncc(C(=O)C3=C(O)CCCC3=O)c2=O)cc1"
  Plant response rating, Bromegrass, Downy: 80
- structure-notation: "COCCn1c(-c2cccc(F)c2)ncc(C(=O)C2=C(O)CCCC2=O)c1=O"
  Plant response rating, Bromegrass, Downy: 10
- structure-notation: "CCCn1c(-c2cccc(C(F)(F)F)c2)ncc(C(=O)C2=C(O)CCCC2=O)c1=O"
  Plant response rating, Bromegrass, Downy: 35

q: Plant response rating, Bromegrass, Downy of O=C1CCCC(O)=C1C(=O)c1cnc(-c2ccccc2)n(C2CCSCC2)c1=O on downy bromegrass (Bromus tectorum)?
a: 85

----------
System: barnyardgrass (Echinochloa crus-galli)
Assay: Test A pre-/postemergence plant response
Assay type: in vivo
Conditions: Preemergence, 125 g ai/ha; 0 to 100 scale, 0 = no effect, 100 = complete control
observation-type: Plant response rating, Barnyardgrass
// no unit string in output, number only

# example entries with known answers
- structure-notation: "CC(C)n1c(-c2ccccc2)ncc(C(=O)C2=C(O)CCCC2=O)c1=O"
  data-value: 40
- structure-notation: "COc1ccc(-n2c(-c3cccc(F)c3)ncc(C(=O)C3=C(O)CCCC3=O)c2=O)cc1"
  data-value: 30
- structure-notation: "Cc1ccccc1-n1c(-c2cccc(Cl)c2)ncc(C(=O)C2=C(O)CCCC2=O)c1=O"
  data-value: 10

Now look at this one.
q: Any idea what its Plant response rating, Barnyardgrass is? The compound is CCCn1c(-c2ccc(F)cc2)ncc(C(=O)C2=C(O)CCCC2=O)c1=O
a: 40
